biological target: Leukotriene D₄ Receptor (Cavia porcellus)
Sequence (Q2NNR5 whole entry): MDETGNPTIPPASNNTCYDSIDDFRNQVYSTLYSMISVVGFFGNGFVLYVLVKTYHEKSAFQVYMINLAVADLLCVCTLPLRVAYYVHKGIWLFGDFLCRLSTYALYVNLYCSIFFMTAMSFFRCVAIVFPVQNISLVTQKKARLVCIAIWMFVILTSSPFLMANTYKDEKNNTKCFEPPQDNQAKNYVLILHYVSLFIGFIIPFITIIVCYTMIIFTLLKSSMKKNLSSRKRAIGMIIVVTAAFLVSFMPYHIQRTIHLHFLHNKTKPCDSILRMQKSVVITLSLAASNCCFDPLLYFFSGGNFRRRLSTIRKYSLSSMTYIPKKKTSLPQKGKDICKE
value.type: IC50 (nM)

1) CCC(CC)(CC(=O)Nc1cccc(/C=C/c2nc(C3CCCC3)cs2)c1)C(=O)O | 60

(a) CCC(CC)(CC(=O)Nc1cccc(/C=C/c2nc(C3CCCCC3)cs2)c1)C(=O)O
(b) O=C(O)CCC(=O)Nc1cccc(/C=C/c2nc(C3CC3)cs2)c1
(c) CCC(CC)(CC(=O)Nc1cccc(/C=C/c2nc(C3CCC3)cs2)c1)C(=O)O
Please put the entries in order of rising IC50. # respond with the labels, arranged in the requested order
c, a, b

====

compounds and their reported LTD₄-Induced Bronchoconstriction (ID₅₀) p.o.
tested on: LTD₄-Induced Bronchoconstriction; assay: Leukotriene-Induced Bronchoconstriction in Guinea Pigs - in vivo leukotriene D₄ (LTD) antagonist test, intravenous and oral testing; set-up: unit not given here; conditions: oral route, increasing doses, two hours prior to challenge; value in parentheses
Lab note: jot the number down without any unit.

Example entries begin here.
1) CCC(CC)(CC(=O)Nc1cccc(/C=C/c2nc(C3CCCC3)cs2)c1)C(=O)O | 0.34
2) CCC(CC)(CC(=O)Nc1cccc(/C=C/c2nc(C3CCCCC3)cs2)c1)C(=O)O | 0.66
3) CCC(CC)(CC(=O)Nc1cccc(/C=C/c2nc(C3CCC3)cs2)c1)C(=O)O | 0.12

Now turn to the next compound.
response.value for `CCC(CC)(CC(=O)Nc1cccc(/C=C/c2nc(C3CC3)cs2)c1)C(=O)O` (field: LTD₄-Induced Bronchoconstriction (ID₅₀) p.o.) = 1.1

====

Tested on: LTD₄-Induced Bronchoconstriction
Experiment: Leukotriene-Induced Bronchoconstriction in Guinea Pigs - in vivo leukotriene D₄ (LTD) antagonist test, intravenous and oral testing
Details: 10 mg/kg p.o.; inhibition with LTD challenge 4 hr. after administration
Description: Leukotriene-Induced Bronchoconstriction in Guinea Pigs - In vivo leukotriene D₄ (LTD) antagonist test Intravenous and Oral Testing Male guinea pigs (Hartley strain Charles River) weighing 300-500 g were anesthetized with urethane (∼2 g/kg) intraperitoneally and a polyethylene cannula was inserted into the jugular vein for intravenous drug administration. Tracheal pressure (cm of H₂0) was recorded from a Statham pressure transducer (P 32 AA). […]
The following molecules are shown together with reported Duration 10 mg/kg p.o. 4 hr. values.
Form: value (number only, do not type unit).

# annotated cases, reported Duration 10 mg/kg p.o. 4 hr. shown
1) CCC(CC)(CC(=O)Nc1cccc(/C=C/c2nc(C3CCCCC3)cs2)c1)C(=O)O | 69
2) CCC(CC)(CC(=O)Nc1cccc(/C=C/c2nc(C3CC3)cs2)c1)C(=O)O | 99

Next:
Documented Duration 10 mg/kg p.o. 4 hr. of `CCC(CC)(CC(=O)Nc1cccc(/C=C/c2nc(C3CCC3)cs2)c1)C(=O)O` : 100
